biological target: Heat shock 70 kDa protein 1A (Homo sapiens); test: Effect on human HSPA1A ATPase activity assessed as fold change in Kcat at 100 uM in presence of J-domain containing Hdj1 co-chaperone relative to control
Binary call on fold change (FC): t from 4 upward, f beneath that.

Determine whether measured fold change (FC) meets or exceeds 4 for CCOC(=O)C1=C(C)N(Cc2ccccc2)C(=O)NC1c1ccccc1OS(=O)(=O)c1ccccc1[N+](=O)[O-] (centres undefined)
f

Check the entry CCCCNC(=O)C(c1ccc(-c2ccccc2)cc1)N(CCN1CCOCC1)C(=O)CCCCCN1C(=O)NC(c2ccc([N+](=O)[O-])cc2)C(C(=O)OCc2ccccc2)=C1C (centres undefined) : does fold change (FC) equal or exceed 4?
t

Hi, just wondering whether COC(=O)c1cc(-c2ccccc2)n(CCNC(=O)CCCCCN2C(=O)NC(c3ccc(-c4ccccc4)cc3)C(C(=O)OCc3ccccc3)=C2C)c1C (centres undefined) shows fold change (FC) of 4 or higher.
t

// inclusive: fold change (FC) at least 4? input: CCCCCCN(C(=O)CCCCCN1C(=O)NC(c2ccc(-c3ccccc3)cc2)C(C(=O)OCc2ccccc2)=C1C)C(C(=O)NCCCC)C1CCCCC1 (centres undefined)
f

# check: fold change (FC) of CCCCN1C(=O)NC(c2ccc(OC)cc2)C(C(=O)OCc2ccccc2)=C1C (centres undefined) is greater than or equal to 4
t

* * *

system: Plasmodium falciparum; experiment: Effect on Plasmodium falciparum Hsp70 ATPase activity assessed as fold change in Kcat at 100 uM relative to control
Known fold change (FC) of a selection of compounds
Write the number on its own, no unit after it.

COMPOUND: CCCCN1C(=O)NC(c2ccc(OC)cc2)C(C(=O)OCc2ccccc2)=C1C (centres undefined)
fold change (FC): 7.2
--
COMPOUND: CCOC(=O)C1=C(C)N(CCCCCC(=O)O)C(=O)NC1c1cccc([N+](=O)[O-])c1 (centres undefined)
fold change (FC): 1.8
--
COMPOUND: CCOC(=O)C1=C(C)N(Cc2ccccc2)C(=O)NC1c1ccccc1OS(=O)(=O)c1ccccc1[N+](=O)[O-] (centres undefined)
fold change (FC): 6.5

// field: fold change (FC); key: COC(=O)c1cc(-c2ccccc2)n(CCNC(=O)CCCCCN2C(=O)NC(c3ccc(-c4ccccc4)cc3)C(C(=O)OCc3ccccc3)=C2C)c1C (centres undefined) ; value = 2.7

* * *

assay: Cytotoxicity against human HepG2 cells; format: cell-based
Below, each of the molecules is paired with its reported GI50 value.

MOLECULE: CCCCN1C(=O)NC(c2ccc(OC)cc2)C(C(=O)OCc2ccccc2)=C1C (stereo not drawn)
GI50: > 10 µM

MOLECULE: CCCCCCN(C(=O)CCCCCN1C(=O)NC(c2ccc(-c3ccccc3)cc2)C(C(=O)OCc2ccccc2)=C1C)C(C(=O)NCCCC)C1CCCCC1 (stereo not drawn)
GI50: > 10 µM

Could you now consider this next molecule?
Per the record, CC(=O)O[C@H]1C(=O)[C@@]2(C)[C@H]([C@H](OC(=O)c3ccccc3)[C@]3(O)C[C@H](OC(=O)[C@H](O)[C@@H](NC(=O)c4ccccc4)c4ccccc4)C(C)=C1C3(C)C)[C@]1(OC(C)=O)CO[C@@H]1C[C@@H]2O [PACLITAXEL] has GI50 of 0.001 µM

* * *

molecular target: Heat shock 70 kDa protein 1A (Homo sapiens) (UniProt P0DMV8); test: Effect on human HSPA1A ATPase activity assessed as fold change in Kcat at 100 uM relative to control
Sequence (P0DMV8 2-641 limits assumed): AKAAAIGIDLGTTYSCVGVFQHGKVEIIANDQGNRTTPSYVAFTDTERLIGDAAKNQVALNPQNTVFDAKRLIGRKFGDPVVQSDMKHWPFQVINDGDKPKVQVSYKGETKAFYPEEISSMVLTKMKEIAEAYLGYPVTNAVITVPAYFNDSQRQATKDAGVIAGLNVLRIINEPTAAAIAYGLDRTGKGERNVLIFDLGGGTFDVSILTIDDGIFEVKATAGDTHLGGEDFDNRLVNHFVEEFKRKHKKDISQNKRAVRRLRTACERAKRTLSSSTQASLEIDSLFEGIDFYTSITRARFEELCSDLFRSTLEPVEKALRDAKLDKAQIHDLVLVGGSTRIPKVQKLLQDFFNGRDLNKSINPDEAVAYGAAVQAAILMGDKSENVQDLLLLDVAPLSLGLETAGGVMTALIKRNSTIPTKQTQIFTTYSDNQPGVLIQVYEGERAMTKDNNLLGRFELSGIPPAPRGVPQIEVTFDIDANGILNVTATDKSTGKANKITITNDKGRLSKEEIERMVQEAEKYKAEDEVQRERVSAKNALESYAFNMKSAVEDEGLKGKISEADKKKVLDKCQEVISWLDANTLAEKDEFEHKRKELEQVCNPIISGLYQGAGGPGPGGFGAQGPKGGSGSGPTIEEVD
Overview of recorded fold change (FC) for various compounds

COMPOUND: CCCCN1C(=O)NC(c2ccc(OC)cc2)C(C(=O)OCc2ccccc2)=C1C (centres undefined)
MEASURED PARAMETER: fold change (FC)
EXPERIMENTAL RESULT: 4.5

Please fill in: fold change (FC) reported for CCOC(=O)C1=C(C)N(CCCCCC(=O)O)C(=O)NC1c1cccc([N+](=O)[O-])c1 (centres undefined) = 1.4

Memo: CCCCCCN(C(=O)CCCCCN1C(=O)NC(c2ccc(-c3ccccc3)cc2)C(C(=O)OCc2ccccc2)=C1C)C(C(=O)NCCCC)C1CCCCC1 (centres undefined) , reported fold change (FC): 2.3

Lab note: measured fold change (FC) of CCCCNC(=O)C(c1ccc(-c2ccccc2)cc1)N(CCN1CCOCC1)C(=O)CCCCCN1C(=O)NC(c2ccc([N+](=O)[O-])cc2)C(C(=O)OCc2ccccc2)=C1C (centres undefined) was 1

// sample CCOC(=O)C1=C(C)N(CCCC(=O)NCCn2c(-c3ccccc3)cc(C(=O)OC)c2C)C(=O)NC1c1ccc([N+](=O)[O-])cc1 (centres undefined) , its fold change (FC) was 2

// COC(=O)C1=C(Cc2ccccc2)NC(=O)NC1c1ccc2ccccc2c1 (centres undefined) : fold change (FC) value = 1.3

For reference, reported fold change (FC) for COC(=O)c1cc(-c2ccccc2)n(CCNC(=O)CCCCCN2C(=O)NC(c3ccc(-c4ccccc4)cc3)C(C(=O)OCc3ccccc3)=C2C)c1C (centres undefined) stands at 3.5

// sample CC1=C(C(=O)OCc2ccccc2)C(c2ccc([N+](=O)[O-])cc2)NC(=O)N1CCCC(=O)N(CCN1CCOCC1)C(C(=O)NC(C)(C)C)c1ccc(-c2ccccc2)cc1 (centres undefined) , its fold change (FC) was 2

Memo: CCOC(=O)C1=C(C)N(Cc2ccccc2)C(=O)NC1c1ccccc1OS(=O)(=O)c1ccccc1[N+](=O)[O-] (centres undefined) , reported fold change (FC): 3.6

* * *

molecular target: Heat shock 70 kDa protein 1A (Homo sapiens); assay: Inhibition of human HSPA1A ATPase activity assessed as residual enzyme activity at 300 uM relative to control
Label condition not met if fold change (FC) falls below 0.8; label condition met in every other case.

The following molecules have reported results that may help.
MOLECULE: CCCCCCN(C(=O)CCCCCN1C(=O)NC(c2ccc(-c3ccccc3)cc2)C(C(=O)OCc2ccccc2)=C1C)C(C(=O)NCCCC)C1CCCCC1 (centres undefined)
CLASSIFICATION: condition met
//
MOLECULE: CCOC(=O)C1=C(C)N(CCCCCC(=O)O)C(=O)NC1c1cccc([N+](=O)[O-])c1 (centres undefined)
CLASSIFICATION: condition met

Check the entry CCCCNC(=O)C(c1ccc(-c2ccccc2)cc1)N(CCN1CCOCC1)C(=O)CCCCCN1C(=O)NC(c2ccc([N+](=O)[O-])cc2)C(C(=O)OCc2ccccc2)=C1C (centres undefined) : does fold change (FC) equal or exceed 0.8?
condition not met

Assess whether reported fold change (FC) for CCOC(=O)C1=C(C)N(Cc2ccccc2)C(=O)NC1c1ccccc1OS(=O)(=O)c1ccccc1[N+](=O)[O-] (centres undefined) sits at 0.8 or higher.
condition not met

Tell me whether fold change (FC) is at least 0.8 here: COC(=O)c1cc(-c2ccccc2)n(CCNC(=O)CCCCCN2C(=O)NC(c3ccc(-c4ccccc4)cc3)C(C(=O)OCc3ccccc3)=C2C)c1C (centres undefined)
condition not met

Does the molecule COC(=O)C1=C(Cc2ccccc2)NC(=O)NC1c1ccc2ccccc2c1 (centres undefined) have recorded fold change (FC) that is 0.8 or more?
condition not met

* * *

molecular target: Heat shock protein SSA1 (Saccharomyces cerevisiae S288c); assay: Effect on Saccharomyces cerevisiae Ssa1 ATPase activity assessed as fold change at 100 uM in Kcat relative to control
fold change (FC) listing for selected compounds.
Give the value as a plain number.

Take a look at these entries with their results.
COMPOUND: CCOC(=O)C1=C(C)N(CCCC(=O)NCCn2c(-c3ccccc3)cc(C(=O)OC)c2C)C(=O)NC1c1ccc([N+](=O)[O-])cc1 (centres undefined)
fold change (FC): -1.3

COMPOUND: CCCCCCN(C(=O)CCCCCN1C(=O)NC(c2ccc(-c3ccccc3)cc2)C(C(=O)OCc2ccccc2)=C1C)C(C(=O)NCCCC)C1CCCCC1 (centres undefined)
fold change (FC): -1.7

COMPOUND: CCOC(=O)C1=C(C)N(CCCCCC(=O)O)C(=O)NC1c1cccc([N+](=O)[O-])c1 (centres undefined)
fold change (FC): 1.3

COMPOUND: CCCCNC(=O)C(c1ccc(-c2ccccc2)cc1)N(CCN1CCOCC1)C(=O)CCCCCN1C(=O)NC(c2ccc([N+](=O)[O-])cc2)C(C(=O)OCc2ccccc2)=C1C (centres undefined)
fold change (FC): -1.6

Value of measured fold change (FC) for the entry COC(=O)C1=C(Cc2ccccc2)NC(=O)NC1c1ccc2ccccc2c1 (centres undefined) : 2

Documented fold change (FC) of CCOC(=O)C1=C(C)N(Cc2ccccc2)C(=O)NC1c1ccccc1OS(=O)(=O)c1ccccc1[N+](=O)[O-] (centres undefined) : 2.1

The reported value for CC1=C(C(=O)OCc2ccccc2)C(c2ccc([N+](=O)[O-])cc2)NC(=O)N1CCCC(=O)N(CCN1CCOCC1)C(C(=O)NC(C)(C)C)c1ccc(-c2ccccc2)cc1 (centres undefined) in terms of fold change (FC) is 1.2

In plain terms, COC(=O)c1cc(-c2ccccc2)n(CCNC(=O)CCCCCN2C(=O)NC(c3ccc(-c4ccccc4)cc3)C(C(=O)OCc3ccccc3)=C2C)c1C (centres undefined) has a documented fold change (FC) of 13.3

Lab note: CCCCN1C(=O)NC(c2ccc(OC)cc2)C(C(=O)OCc2ccccc2)=C1C (centres undefined) gave fold change (FC) of 2.3
